The measured values listed here are drawn from patent US20220372013A2.

Provide the reported Daily Body Weight of each item.
- Test system: mice
- Measurement Notes: Biological Example 5: acute toxicity experiment of single oral administration in mice
- Format: in vivo
- Test Context: Female mice; Day 4; single oral 1000 mg/Kg; Mean ± SD
Give bare numbers, in g.

Kindly give each listed record's Daily Body Weight.
1. COCCN1C(=O)CCC(N2C(=O)c3cccc(O)c3C2=O)C1=O (stereo not drawn) [Example 23]
2. COCCN1C(=O)CCC(N2C(=O)c3cccc(NC(C)=O)c3C2=O)C1=O (stereo not drawn) [Example 1]
3. CCOCCN1C(=O)CCC(N2C(=O)c3cccc(N)c3C2=O)C1=O (stereo not drawn) [Example 19]
4. COCCN1C(=O)CCC(N2C(=O)c3cccc(F)c3C2=O)C1=O (stereo not drawn) [Example 4]
5. COCCN1C(=O)CCC(N2C(=O)c3ccc(F)c(N)c3C2=O)C1=O (stereo not drawn) [Example 9]
6. COCCN1C(=O)CCC(N2C(=O)c3cccc(C)c3C2=O)C1=O (stereo not drawn) [Example 24]
7. COCCCN1C(=O)CCC(N2C(=O)c3ccc(N)cc3C2=O)C1=O (stereo not drawn) [Example 18]

Return:
1: 23.0; 2: 24.0; 3: 22.8; 4: 23.5; 5: 22.8; 6: 23.6; 7: 24.8

Kindly give each listed record's Daily Body Weight.
1. C[S+]([O-])CCN1C(=O)CCC(N2C(=O)c3cccc(N)c3C2=O)C1=O (stereo not drawn) [Example 12]
2. COCCN1C(=O)CCC(N2C(=O)c3c(N)ccc(O)c3C2=O)C1=O (stereo not drawn) [Example 10]
3. CCOCCN1C(=O)CCC(N2C(=O)c3cccc(F)c3C2=O)C1=O (stereo not drawn) [Example 20]
4. CS(=O)(=O)CCN1C(=O)CCC(N2C(=O)c3cccc(N)c3C2=O)C1=O (stereo not drawn) [Example 13]
5. CSCCN1C(=O)CCC(N2C(=O)c3cccc(N)c3C2=O)C1=O (stereo not drawn) [Example 11]
6. COCCCN1C(=O)CCC(N2C(=O)c3cccc(N)c3C2=O)C1=O (stereo not drawn) [Example 26]
7. COCCCN1C(=O)CCC(N2C(=O)c3cccc(F)c3C2=O)C1=O (stereo not drawn) [Example 17]
8. COCCCCN1C(=O)CCC(N2C(=O)c3cccc(N)c3C2=O)C1=O (stereo not drawn) [Example 22]

Return:
1: 22.6; 2: 22.4; 3: 22.1; 4: 21.8; 5: 22.4; 6: 22.4; 7: 22.7; 8: 24.0

###

- System: mice
- Measurement Notes: Biological Example 5: acute toxicity experiment of single oral administration in mice
- Type: in vivo
- Test Context: Male mice; Day 6; single oral 1000 mg/Kg; Mean ± SD
Provide the reported Daily Body Weight of each item.
Give bare numbers, in g.

See these solved cases before continuing.
CS(=O)(=O)CCN1C(=O)CCC(N2C(=O)c3cccc(N)c3C2=O)C1=O (stereo not drawn) [Example 13] ... 28.3
COCCCN1C(=O)CCC(N2C(=O)c3cccc(N)c3C2=O)C1=O (stereo not drawn) [Example 26] ... 28.3
CSCCN1C(=O)CCC(N2C(=O)c3cccc(N)c3C2=O)C1=O (stereo not drawn) [Example 11] ... 29.0
COCCCN1C(=O)CCC(N2C(=O)c3cccc(F)c3C2=O)C1=O (stereo not drawn) [Example 17] ... 28.1
C[S+]([O-])CCN1C(=O)CCC(N2C(=O)c3cccc(N)c3C2=O)C1=O (stereo not drawn) [Example 12] ... 27.8
CCOCCN1C(=O)CCC(N2C(=O)c3cccc(N)c3C2=O)C1=O (stereo not drawn) [Example 19] ... 26.5
COCCN1C(=O)CCC(N2C(=O)c3cccc(NC(C)=O)c3C2=O)C1=O (stereo not drawn) [Example 1] ... 29.2
COCCCN1C(=O)CCC(N2C(=O)c3ccc(N)cc3C2=O)C1=O (stereo not drawn) [Example 18] ... 29.0

Here's the next entry for you.
Enquiry: Retrieve Daily Body Weight measured for COCCN1C(=O)CCC(N2C(=O)c3cccc(F)c3C2=O)C1=O (stereo not drawn) [Example 4] and print it.
Return: 27.6

###

Provide the reported Daily Body Weight of each item.
- Tested on: mice
- Measurement Notes: Biological Example 5: acute toxicity experiment of single oral administration in mice
- Type: in vivo
- Test Context: Female mice; Day 1; single oral 1000 mg/Kg; Mean ± SD
Answers are plain numbers, in g.

See these solved cases before continuing.
COCCCN1C(=O)CCC(N2C(=O)c3cccc(N)c3C2=O)C1=O (stereo not shown) ... 18.0
COCCN1C(=O)CCC(N2C(=O)c3cccc(F)c3C2=O)C1=O (stereo not shown) ... 18.4
COCCCCN1C(=O)CCC(N2C(=O)c3cccc(N)c3C2=O)C1=O (stereo not shown) ... 18.5

Here's the next entry for you.
Enquiry: Retrieve Daily Body Weight measured for COCCN1C(=O)CCC(N2C(=O)c3cccc(C)c3C2=O)C1=O (stereo not shown) and print it.
Return: 18.4

###

Provide the reported Body weight of each item.
- Tested on: DNBS-Induced Inflammatory Bowel Disease Models in Rats
- Measurement Notes: Biological Example 4: DNBS-induced inflammatory bowel disease models in rats
- Type: in vivo, Wistar rats
- Test Context: Day 6; 30 mg/Kg i.g. qd × 7; Mean ± SD
Answers are plain numbers, in g.

See these solved cases before continuing.
COCCN1C(=O)CCC(N2C(=O)c3ccc(O)c(N)c3C2=O)C1=O (stereo not drawn) ... 149.7
CNc1cccc2c1C(=O)N(C1CCC(=O)N(CCOC)C1=O)C2=O (stereo not drawn) ... 141.5
COCCN1C(=O)CCC(N2C(=O)c3cccc(O)c3C2=O)C1=O (stereo not drawn) ... 152.1
COCCN1C(=O)CCC(N2C(=O)c3c(F)c(F)c(F)c(F)c3C2=O)C1=O (stereo not drawn) ... 146.9

Kindly give each listed record's Body weight.
1. COCCN1C(=O)CCC(N2C(=O)c3c(N)ccc(O)c3C2=O)C1=O (stereo not drawn)
2. COCCN1C(=O)CCC(N2C(=O)c3cccc(C)c3C2=O)C1=O (stereo not drawn)

Return:
144.9
145.9

Kindly give each listed record's Body weight.
1. C[S+]([O-])CCN1C(=O)CCC(N2C(=O)c3cccc(N)c3C2=O)C1=O (stereo not drawn)
2. COCCN1C(=O)CCC(F)(N2C(=O)c3cccc(N)c3C2=O)C1=O (stereo not drawn)
3. COCCN1C(=O)CCC(N2C(=O)c3cccc(N)c3C2=O)C1=O (stereo not drawn)

Return:
1. 149.5
2. 147.6
3. 146.7

###

Provide the reported Daily Body Weight of each item.
- System: mice
- Measurement Notes: Biological Example 5: acute toxicity experiment of single oral administration in mice
- Format: in vivo
- Test Context: Female mice; Day 7; single oral 1000 mg/Kg; Mean ± SD
Give bare numbers, in g.

COCCCN1C(=O)CCC(N2C(=O)c3ccc(N)cc3C2=O)C1=O (centres unmarked) ... 25.2

Kindly give each listed record's Daily Body Weight.
1. COCCCCN1C(=O)CCC(N2C(=O)c3cccc(N)c3C2=O)C1=O (centres unmarked)
2. CNc1cccc2c1C(=O)N(C1CCC(=O)N(CCOC)C1=O)C2=O (centres unmarked)
3. COCCN1C(=O)CCC(N2C(=O)c3cccc(O)c3C2=O)C1=O (centres unmarked)
4. COCCN1C(=O)CCC(N2C(=O)c3cccc(NC(C)=O)c3C2=O)C1=O (centres unmarked)

Return:
25.6
24.5
24.6
27.1

###

- Tested on: mice
- Measurement Notes: Biological Example 5: acute toxicity experiment of single oral administration in mice
- Type: in vivo
- Test Context: Female mice; Day 7; single oral 1000 mg/Kg; Mean ± SD
- Description: The mice were fasted one day before the experiment. On the day of the experiment, 6 mice (ICR mice, body weight of 19-21 g, three females and three males) were selected in each experiment group. First of all, one female and one male were selected to orally give 1000 mg/Kg, and observed for 5-10 minutes. If there were no obvious side effects, the remaining 4 animals were orally given the same dose, and observed for 10-15 minutes. […] The state was observed and the body weight was recorded daily. […]
Provide the reported Daily Body Weight of each item.
One number for each entry, in g.

See these solved cases before continuing.
COCCCN1C(=O)CCC(N2C(=O)c3cccc(F)c3C2=O)C1=O (centres unmarked) ... 22.7
COCCN1C(=O)CCC(N2C(=O)c3ccc(O)c(N)c3C2=O)C1=O (centres unmarked) ... 26.0
Nc1cccc2c1C(=O)N(C1CCC(=O)N(CCO)C1=O)C2=O (centres unmarked) ... 22.9
CCOCCN1C(=O)CCC(N2C(=O)c3cccc(F)c3C2=O)C1=O (centres unmarked) ... 23.7

Here's the next entry for you.
Enquiry: Retrieve Daily Body Weight measured for COCCN1C(=O)CCC(N2C(=O)c3cccc(F)c3C2=O)C1=O (centres unmarked) and print it.
Return: 24.0
